Target: Programmed cell death 1 ligand 1 (Homo sapiens, UniProt Q9NZQ7)
Sequence (Q9NZQ7 whole entry): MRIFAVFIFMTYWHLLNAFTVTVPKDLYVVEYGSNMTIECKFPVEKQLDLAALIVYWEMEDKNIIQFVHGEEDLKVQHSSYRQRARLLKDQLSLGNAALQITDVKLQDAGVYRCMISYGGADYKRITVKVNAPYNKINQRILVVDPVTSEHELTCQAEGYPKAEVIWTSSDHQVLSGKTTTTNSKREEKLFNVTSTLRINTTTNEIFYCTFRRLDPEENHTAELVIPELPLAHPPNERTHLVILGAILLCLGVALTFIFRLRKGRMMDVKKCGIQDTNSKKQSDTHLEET
assay_endpoint: IC50
Value and unit, in that order.

IN: What measured IC50 goes with C[C@H](O)[C@H](NC(=O)N[C@@H](CC(N)=O)c1nnc([C@@H](N)CO)s1)C(=O)O ?
OUT: 37 nM
